Assay: Dissociation constant, pKa of the compound
Type: physicochemical
PROPERTY_NAME: pKa
Give bare numbers.

# get_value(readout='pKa', item= CN1CCC(Oc2cccc3ncnc(Nc4ccc(OCc5ccccn5)c(Cl)c4)c23)CC1 )
8.1

###

Experiment: Volume of distribution at steady state in Beagle dog at 1 mg/kg, iv and 2 mg/kg, po
Format: ADME, organism-based, Canis lupus familiaris
Conditions: in vivo, read-out: Vdss
PROPERTY_NAME: Vd
Answer by giving the amount and then stating its unit.

# get_value(readout='Vd', item= Cc1ccc(Oc2ccc(Nc3ncnc4cccc(O[C@H](C)C(=O)N(C)C)c34)cc2C)cn1 )
1.8 L/kg
